# Procedure Text: Cmax in cynomolgus monkey at 30 mg/kg, po by LC/MS/MS analysis
# Assay type: ADME, organism-based, Macaca fascicularis
# Design: dose 30 mg/kg, route oral
# Condition Description: in vivo

Molecule Smiles | Cmax / µM
C/C(=N\O)c1nc([C@@H](O)[C@H](O)[C@H](O)CO)c[nH]1.Cl | 16.9

---

# Procedure Text: Cmax in 129/SvEvBrd X C57BL/6 F1 mouse at 10 mg/kg, po by LC/MS/MS analysis
# Type: ADME, organism-based
# Set-up: dose 10 mg/kg, route oral
# Condition Description: in vivo
# key: entry, value: Cmax

Molecule Smiles | Quantity Unit | Cmax
C/C(=N\O)c1nc([C@@H](O)[C@H](O)[C@H](O)CO)c[nH]1.Cl | µM | 3.6
Cl.OC[C@@H](O)[C@@H](O)[C@H](O)c1c[nH]c(-c2ccon2)n1 | µM | 6.2
